Tested on: CCRIS mutagenicity, Ames/micronucleus/aberration tests
Assay: CCRIS mutagenicity studies
Conditions: Test System: AMES SALMONELLA TYPHIMURIUM; Strain/Indicator: TA1538; Metabolic Activation: RAT, LIVER, S-9, AROCLOR 1254; Method: STANDARD PLATE
Active and inactive are the calls of the source. No rule for the calls is given here.
Possible outcomes: 1 for active, 0 for inactive

COMPOUND: CCOc1cc(N=Nc2ccccc2)ccc1N=Nc1c(S(=O)(=O)O)cc2ccc(N)cc2c1O
DISCRETE LABEL: 1
--
COMPOUND: C=CC(=O)OC
DISCRETE LABEL: 0
--
COMPOUND: CCOC(=O)CBr
DISCRETE LABEL: 0
--
COMPOUND: O=S(=O)(O)c1c(N=Nc2c(O)ccc3ccccc23)ccc2ccccc12
DISCRETE LABEL: 0
--
COMPOUND: O=C1c2c(O)ccc([N+](=O)[O-])c2C(=O)c2c([N+](=O)[O-])ccc(O)c21
DISCRETE LABEL: 1
--
COMPOUND: Cc1cc(N=Nc2ccccc2C)ccc1N
DISCRETE LABEL: 1
--
COMPOUND: O=[N+]([O-])c1cc(C(F)(F)F)cc([N+](=O)[O-])c1O
DISCRETE LABEL: 0
--
COMPOUND: C[n+]1c2cc(N)ccc2cc2ccc(N)cc21 (tested in a mixture with another compound)
DISCRETE LABEL: 1
--
COMPOUND: Nc1ccc(N=Nc2ccc(-c3ccc(N=Nc4c(S(=O)(=O)O)cc5c(c4N)C(=O)/C(=N/Nc4ccccc4)C(S(=O)(=O)O)=C5)cc3)cc2)c(N)c1
DISCRETE LABEL: 1
--
COMPOUND: C=CC(=O)OCC (tested in a mixture with another compound)
DISCRETE LABEL: 0

----------
System: CCRIS mutagenicity, Ames/micronucleus/aberration tests
Experiment: CCRIS mutagenicity studies
Settings: Test System: AMES SALMONELLA TYPHIMURIUM; Strain/Indicator: TA102; Metabolic Activation: NONE; Method: PREINCUBATION
The source made the active and inactive calls. The rule behind the calls is not given here.
Outcomes: yes (active), no (inactive)

COMPOUND: N[C@@H](CC(=O)O)C(=O)O
DISCRETE LABEL: no

COMPOUND: C[C-](C)[N+](=O)[O-]
DISCRETE LABEL: yes

COMPOUND: O=C(O)c1ccccc1C(=O)O
DISCRETE LABEL: no

COMPOUND: Cc1cc2nc3c(ccc4ccccc43)c(C)c2cc1C
DISCRETE LABEL: yes

COMPOUND: O=S(O)O
DISCRETE LABEL: no

COMPOUND: CC(=O)C(C)O (configuration not stated)
DISCRETE LABEL: no

COMPOUND: CCCCOC(=O)CCC
DISCRETE LABEL: no

COMPOUND: CCc1cn([C@H]2C[C@H](O)[C@@H](CO)O2)c(=O)[nH]c1=O
DISCRETE LABEL: no

COMPOUND: CC(CO)[N+](=O)[O-] (configuration not stated)
DISCRETE LABEL: no

COMPOUND: NCC(=O)O
DISCRETE LABEL: no

COMPOUND: CC(C)(C)S(=O)(=O)C[C@@H](Cc1ccccc1)C(=O)N[C@@H](Cc1cnc[nH]1)C(=O)N[C@@H](CC1CCCCC1)[C@@H](O)[C@@H](O)C1CC1
DISCRETE LABEL: no

COMPOUND: Cc1c(N)nc([C@H](CC(N)=O)NC[C@H](N)C(N)=O)nc1C(=O)N[C@H](C(=O)N[C@H](C)[C@@H](O)[C@H](C)C(=O)N[C@H](C(=O)NCCc1nc(-c2nc(C(=O)NCCCN(C)CCCN=C(N)CC3CCC(Cl)CC3)cs2)cs1)[C@@H](C)O)[C@@H](O[C@@H]1O[C@@H](CO)[C@@H](O)[C@H](O)[C@@H]1O[C@H]1O[C@H](CO)[C@@H](O)[C@H](OC(N)=O)[C@@H]1O)c1cnc[nH]1 (some centres not stated)
DISCRETE LABEL: yes

COMPOUND: Nc1nc2ncc(CNc3ccc(C(=O)N[C@@H](CCC(=O)O)C(=O)O)cc3)nc2c(=O)[nH]1
DISCRETE LABEL: no

COMPOUND: C=C1C[C@@]23CC[C@H]4[C@@](C)(CCC[C@@]4(C)C(=O)O)[C@@H]2CC[C@]1(O)C3
DISCRETE LABEL: no

COMPOUND: c1ccc([Se][Se]c2ccccc2)cc1
DISCRETE LABEL: no

COMPOUND: CC(O)C(C)[N+](=O)[O-] (configuration not stated)
DISCRETE LABEL: no

COMPOUND: Cc1[nH]ccc2c1[nH]c1cc(=O)ccc12
DISCRETE LABEL: no

COMPOUND: CCCCOC(C)=O
DISCRETE LABEL: no

COMPOUND: CCOCCCl
DISCRETE LABEL: no

COMPOUND: CCCCCCCCBr
DISCRETE LABEL: no

COMPOUND: CCOC(=O)CBr
DISCRETE LABEL: no

COMPOUND: NCCCN1CCN(CCCN)CC1
DISCRETE LABEL: no

COMPOUND: CC1C=CC(=O)O1 (configuration not stated)
DISCRETE LABEL: no

COMPOUND: C=CCN=C=S
DISCRETE LABEL: no

COMPOUND: [Cl][Ni][Cl]
DISCRETE LABEL: no

COMPOUND: CC(C)(C)[N+](=O)[O-]
DISCRETE LABEL: no

COMPOUND: ClCc1ccc(Cl)cc1
DISCRETE LABEL: no
